This section presents molecules with their documented inhibition at 0.3 mg/kg values.
- System: TxB2 production
- procedureText: TxB2 generation in clotted whole blood after i.v. dosing (method of Patrono et al, RIA)
- Type: in vivo, rabbits
- testConditions: Oryctolagus cuniculus, iv, 0.25 h; 0.3 mg/kg i.v., 15 MIN post dose

{"molecule": "O=C(O)c1ccc2oc(Cn3ccnc3)c(Cl)c2c1", "inhibition at 0.3 mg/kg": "97%"}
{"molecule": "O=C(O)c1ccc2sc(Cn3ccnc3)c(Cl)c2c1", "inhibition at 0.3 mg/kg": "100%"}
{"molecule": "Cc1c(Cc2cccnc2)sc2cc(C(=O)O)ccc12", "inhibition at 0.3 mg/kg": "91%"}
{"molecule": "CSc1c(Cn2ccnc2)sc2ccc(C(=O)O)cc12", "inhibition at 0.3 mg/kg": "98%"}
{"molecule": "Cc1c(Cn2ccnc2)oc2ccc(C(=O)O)cc12", "inhibition at 0.3 mg/kg": "83%"}
{"molecule": "Cc1c(Cc2cccnc2)ccc2ccc(C(=O)O)cc12", "inhibition at 0.3 mg/kg": "98%"}
{"molecule": "Cc1c(Cc2cccnc2)sc2ccc(C(=O)O)cc12", "inhibition at 0.3 mg/kg": "99%"}
